Target: soluble disulfide-stabilized HIV-1 CA hexamer (A14C/E45C/W184A/M185A) (Human immunodeficiency virus type 1 group M subtype B, UniProt P12493, A146C/E177C/M317A/W316A)
Assay: biochemical
Format: binding
assayReadout: pKd
Please report pKd as the negative decimal logarithm of the molar concentration, giving only the number.

Entry under review: Ac-EIIAEDYDDDPVDYE-NH2 [15–6] . Reported pKd? 7.27
